Provenance of the data: PubChem BioAssay AID588689

TARGET: Genome polyprotein (Dengue virus type 2 (strain 16681-PDK53)) (UniProt P29991)
ASSAY_OVERVIEW: flavivirus cap methylation enzyme inhibition – biochemical, confirmation dose response, primary screen (AID 588689)
MEASUREMENT_SETUP: Dengue-2 NS5 methyltransferase capping enzyme assay, at 25 µM, hits give high values
In all, about 340,000 compounds went through this assay and about 1,000 (0.29%) were called active. A selection follows. Results with a measured potency or affinity are listed apart.
PARAMETER_MEASURED: inhibition (%)
Reply numerically in %, unit not repeated.

O=c1cc(-c2nn[nH]n2)[nH]c(=O)[nH]1    -0.8
CCOc1ccc(C(=O)N/N=C/c2ccc(-c3ccc(S(=O)(=O)Nc4ncccn4)cc3)o2)cc1    0.82
CCOc1ccc(C2C(C(=O)c3ccc(C)o3)=C(O)C(=O)N2c2nc(C)c(C(=O)OC)s2)cc1 (stereo not drawn)    10.7
Cc1cc(C)c2nc(N3C(=O)C(O)=C(C(=O)c4ccco4)C3c3ccco3)sc2c1 (stereo not drawn)    1.47

// recorded inhibition for CC(C)C(C(=O)O)N1C(=O)/C(=C/c2cccn2C)SC1=S (stereo not drawn) : -19.5

CCOC(=O)C1C(C)=C(Nc2ccc(OC)cc2)C(=O)N1c1ccc(OC)cc1 (stereo not drawn) has a reported inhibition of -2.18

Briefly, inhibition measured for `CCCCCCCCCCNC(=O)CCn1[nH]c(=O)c2ccccc2c1=O` : -4.1

Sure, the documented inhibition for `Cc1ccc(-c2nc3ccccc3[nH]2)cc1NC(=O)c1sc2cc(Cl)ccc2c1Cl` is -3.63
